# Study Target: VEGF (R&D systems, Minneapolis, Minn.) (UniProt P15692-4 27-191, limits assumed)
# Sequence (P15692 other isoform, or with tags, fused parts or gaps limits assumed): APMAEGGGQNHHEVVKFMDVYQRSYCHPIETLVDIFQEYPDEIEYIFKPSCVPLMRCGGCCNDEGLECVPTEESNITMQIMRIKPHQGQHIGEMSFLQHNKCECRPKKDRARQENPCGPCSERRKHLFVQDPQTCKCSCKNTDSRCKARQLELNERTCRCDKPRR
# Assay: BIAcore SPR
# Experimental: RL was kept low to minimize avidity due to the dimeric nature of VEGF. No capture of the antibody was made on the reference surface to serve as a negative control. […] All the binding kinetics data were analyzed at least three separate determinations.
What pKd was measured for each of the following?
pKd here is simply -log10 of the concentration when that concentration is written in mol/L.

Qu. Report pKd for 96 (antibody, human IgG1, V domains shown) VH: EVQLVESGGGLVQPGGSLRLSCAASGYTFTFYGMNWVRQAPGKGLEWVGWINTYTGEPTYAADFKRRFTFSLDTSKSTAYLQMNSLRAEDTAVYYCAKYPPYYGGSHWYFDVWGQGTLVTVSS VL: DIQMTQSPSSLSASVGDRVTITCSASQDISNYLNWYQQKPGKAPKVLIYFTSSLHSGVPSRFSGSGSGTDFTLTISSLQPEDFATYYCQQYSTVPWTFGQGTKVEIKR please.
Ans. 8.76

Qu. Report pKd for bevacizumab variant corresponding to SEQ ID NO:82 (antibody, V domains shown) VH: EVQLVESGGGLVQPGGSLRLSCAASGYTFTFYGMNWVRQAPGKGLEWVGWINTYTGEPTYAADFKRRFTFSLDTSKSTAYLQMNSLRAEDTAVYYCAKYPDYDGGSHWYFDVWGQGTLVTVSS VL: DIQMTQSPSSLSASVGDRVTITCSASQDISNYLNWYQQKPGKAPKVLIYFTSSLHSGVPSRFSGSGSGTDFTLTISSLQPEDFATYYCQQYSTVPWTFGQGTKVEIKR please.
Ans. 10.08

Qu. Report pKd for 89 (antibody, human IgG1, V domains shown) VH: EVQLVESGGGLVQPGGSLRLSCAASGYTFTFYGMNWVRQAPGKGLEWVGWINTYTGEPTYAADFKRRFTFSLDTSKSTAYLQMNSLRAEDTAVYYCAKYPPYDGSSHWYFDVWGQGTLVTVSS VL: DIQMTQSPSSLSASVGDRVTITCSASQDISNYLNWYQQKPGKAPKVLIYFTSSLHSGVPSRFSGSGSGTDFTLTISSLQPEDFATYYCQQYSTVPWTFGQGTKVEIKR please.
Ans. 9.55

Qu. Report pKd for 93 (antibody, human IgG1, V domains shown) VH: EVQLVESGGGLVQPGGSLRLSCAASGYTFTNYGMNWVRQAPGKGLEWVGWINTYTGEPTYAADFKRRFTFSLDTSKSTAYLQMNSLRAEDTAVYYCAKYPEYYGSSHWYFDVWGQGTLVTVSS VL: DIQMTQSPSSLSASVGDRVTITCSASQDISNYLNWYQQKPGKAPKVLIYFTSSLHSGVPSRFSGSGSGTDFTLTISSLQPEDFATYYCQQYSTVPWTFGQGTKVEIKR please.
Ans. 9.12

Qu. Report pKd for 85 (antibody, human IgG1, V domains shown) VH: EVQLVESGGGLVQPGGSLRLSCAASGYTFTFYGMNWVRQAPGKGLEWVGWINTYTGEPTYAADFKRRFTFSLDTSKSTAYLQMNSLRAEDTAVYYCAKYPEYEGSSHWYFDVWGQGTLVTVSS VL: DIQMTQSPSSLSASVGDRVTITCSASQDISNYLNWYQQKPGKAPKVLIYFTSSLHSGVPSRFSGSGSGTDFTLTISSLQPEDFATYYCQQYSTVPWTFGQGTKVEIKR please.
Ans. 9.85

Qu. Report pKd for 90 (antibody, human IgG1, V domains shown) VH: EVQLVESGGGLVQPGGSLRLSCAASGYTFTFYGMNWVRQAPGKGLEWVGWINTYTGEPTYAADFKRRFTFSLDTSKSTAYLQMNSLRAEDTAVYYCAKYPDYYGSSHWYFDVWGQGTLVTVSS VL: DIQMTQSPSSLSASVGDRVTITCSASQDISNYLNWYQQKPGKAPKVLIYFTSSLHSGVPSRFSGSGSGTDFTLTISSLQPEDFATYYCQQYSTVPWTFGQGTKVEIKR please.
Ans. 9.51

Qu. Report pKd for 86 (antibody, human IgG1, V domains shown) VH: EVQLVESGGGLVQPGGSLRLSCAASGYTFTFYGMNWVRQAPGKGLEWVGWINTYTGEPTYAADFKRRFTFSLDTSKSTAYLQMNSLRAEDTAVYYCAKYPDYEGSSHWYFDVWGQGTLVTVSS VL: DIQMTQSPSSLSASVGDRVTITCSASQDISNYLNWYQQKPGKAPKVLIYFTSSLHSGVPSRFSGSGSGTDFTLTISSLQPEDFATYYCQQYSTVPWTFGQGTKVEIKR please.
Ans. 9.75

Qu. Report pKd for 91 (antibody, human IgG1, V domains shown) VH: EVQLVESGGGLVQPGGSLRLSCAASGYTFTFYGMNWVRQAPGKGLEWVGWINTYTGEPTYAADFKRRFTFSLDTSKSTAYLQMNSLRAEDTAVYYCAKYPHYYGSSHWYFDVWGQGTLVTVSS VL: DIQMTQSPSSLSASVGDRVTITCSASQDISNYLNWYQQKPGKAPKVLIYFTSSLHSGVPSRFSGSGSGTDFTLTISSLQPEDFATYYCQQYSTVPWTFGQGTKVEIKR please.
Ans. 9.24

Qu. Report pKd for 94 (antibody, human IgG1, V domains shown) VH: EVQLVESGGGLVQPGGSLRLSCAASGYTFTFYGMNWVRQAPGKGLEWVGWINTYTGEPTYAADFKRRFTFSLDTSKSTAYLQMNSLRAEDTAVYYCAKYPHYYGGSHWYFDVWGQGTLVTVSS VL: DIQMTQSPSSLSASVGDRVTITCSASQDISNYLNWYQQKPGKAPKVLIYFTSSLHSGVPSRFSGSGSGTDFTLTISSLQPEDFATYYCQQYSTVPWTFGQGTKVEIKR please.
Ans. 9.07

Qu. Report pKd for 92 (antibody, human IgG1, V domains shown) VH: EVQLVESGGGLVQPGGSLRLSCAASGYTFTNYGMNWVRQAPGKGLEWVGWINTYTGEPTYAADFKRRFTFSLDTSKSTAYLQMNSLRAEDTAVYYCAKYPPYYGSSHWYFDVWGQGTLVTVSS VL: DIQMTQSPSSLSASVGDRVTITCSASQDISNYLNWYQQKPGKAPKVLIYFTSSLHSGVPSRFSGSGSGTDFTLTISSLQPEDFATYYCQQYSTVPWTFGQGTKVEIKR please.
Ans. 9.15
